System: MDA-MB-468 breast
Experiment: NCI-60 one-dose screen, 48 h
Conditions: 10 µM unless noted
This is part of a sample that, as a whole, favours compounds with a hit. Of some 83,000 tested, about 20% had one in any assay. Calls of active or inactive are those of the source. How the source made its calls: active means growth percent below 10; inactive means the rest.
Classes to choose from: 1.0 (active), 0.0 (inactive)

Consider the worked cases shown below.
Cc1ccc(Cl)cc1N1C(=O)CC(Sc2ccccc2N)C1=O (stereo not given)    0.0
O=C(C1CCCCC1)[C@@H]1[C@]2(C(=O)NC3CCCCC32)[C@@H]2CCCN2[C@@]12C(=O)NC1CCC(Cl)CC12 (stereo not given in full)    1.0
CCCCCCCCCCCCCCCCCCOc1ccccc1N    0.0
C/C(=N\OC(=O)Nc1cccc(Cl)c1)c1ccccc1    0.0
COc1ccc2c(O)c(/C=C3\N=Nc4ncccc43)oc2c1C[C@H]1CCNC[C@H]1F    1.0
COc1cc(/C=C2\Oc3cc(OCCCN4CCCC4)ccc3C2=O)cc(OC)c1    0.0
CCN(CC)CCn1c(=N)n(CC(O)c2ccc(Cl)c(Cl)c2)c2ccccc21 (stereo not given)    0.0
OC(c1cccc(C(F)(F)F)c1)c1cnccc1NC1CCCCC1 (stereo not given)    0.0

# input Please let me know the test result on file for CCOc1ccccc1-n1c(CN2CCN(C(=O)COc3ccc(CNCCCCCCN4C5CCCC4CC(OC(=O)Nc4cc(C)ccc4OC)C5)cc3)CC2)nc2ccccc2c1=O (stereo not given) .
# output 1.0

# input Please let me know the test result on file for `COc1ccc(-c2nc3cc(C(=O)NC4CCCCC4)ccc3n2C2CCCCC2)cc1` .
# output 0.0

# input Please let me know the test result on file for `C[C@H]1[C@H]2[C@H]3CC[C@@H]4[C@@]5(C)C/C(=C/c6ccco6)C(=O)C(C)(C)[C@@H]5CC[C@@]4(C)[C@]3(C)CC[C@]23CO[C@]1(C)[C@@H](C(=O)/C=C\c1ccco1)C3` .
# output 0.0

# input Please let me know the test result on file for `COc1cc2cc(CN3CCN(c4nccc(-c5ccc6ccccc6c5)n4)CC3)c(=O)[nH]c2cc1OC` .
# output 0.0

# input Please let me know the test result on file for `COc1cc(/C=C2\CN(C)C/C(=C\c3cc(CN4CCCC4)c(O)c(OC)c3)C2=O)cc(CN2CCCC2)c1O` .
# output 0.0

----------
growth values, listed per item
Tested on: MDA-MB-468 breast
Experiment: NCI-60 one-dose screen, 48 h (100 = growth as untreated, 0 = no growth, -100 = all killed)
Settings: 10 µM unless noted
About 83,000 compounds went through this panel and 20% of them were active in at least one assay; those are over-represented in the sample as a whole.
Numbers only; they are read as %.

CCN(CC)CCCC(C)Nc1c2c(nc3ccc(OC)cc13)CCCC2 (stereo not given)    98.8
COc1ccc(C2=NN3C(C2)c2cc(Br)ccc2OC3c2ccncc2)cc1 (stereo not given)    103
O=C1CC2(O)CSc3nc(=O)cc(n32)N1 (stereo not given)    109
COc1cc(-c2nc(SCCC(C)C)nc(Nc3ccc(F)cc3)c2C#N)cc(OC)c1OC    96.8

Simply: `C=C(C)[C@@H]1CC[C@]2(C(=O)N3CCN(C)CC3)CC[C@]3(C)[C@H](CC[C@@H]4[C@@]5(C)CC[C@H](OCCC#N)C(C)(C)[C@@H]5CC[C@]43C)[C@@H]12` , MDA-MB-468 breast, growth = 69.4

----------
growth values, listed per item
Test system: MDA-MB-468 breast
Experiment: NCI-60 one-dose screen, 48 h (100 = growth as untreated, 0 = no growth, -100 = all killed)
Conditions: 10 µM unless noted
This is part of a sample that, as a whole, favours compounds with a hit. Of some 83,000 tested, about 20% had one in any assay.
Numbers only; they are read as %.

CNCCCn1c2c(c3ccc(F)cc3c1=O)C(=O)c1cc(OC)cnc1-2    -47.6
NC(=O)OCCn1cc(-c2nc(-c3c[nH]c4ncccc34)cs2)c2ccccc21    12.4
N#Cc1c(-c2ccccc2)c(C#N)c2c(C#N)c(N)nn2c1N    25.9

Then this molecule:
The reported growth of the molecule `COc1cc(NC(=O)C2=C(C)NC(C)=C(C(=O)Nc3cc(OC)c(Cl)cc3OC)C2c2cccc([N+](=O)[O-])c2)c(OC)cc1Cl` was -11.7

----------
Test system: MDA-MB-468 breast
Experiment: NCI-60 one-dose screen, 48 h (100 = growth as untreated, 0 = no growth, -100 = all killed)
Details: 10 µM unless noted
This is part of a sample that, as a whole, favours compounds with a hit. Of some 83,000 tested, about 20% had one in any assay.
Classify as follows. Reported growth greater than or equal to 40%: Condition met. Reported growth below: Condition not met.

CCN(CC)CCn1c2ccc(O)cc2c2sc3cc(OC)ccc3c(=O)c21    Condition not met

# input // inclusive: growth at least 40%? input: `Cc1ccc2c(c1)=C/C(=C\c1cc(-c3ccccc3)[nH]c1O)C(=O)N=2`
# output Condition not met

----------
System: MDA-MB-468 breast
Assay: NCI-60 one-dose screen, 48 h
Details: 10 µM unless noted
This is part of a sample that, as a whole, favours compounds with a hit. Of some 83,000 tested, about 20% had one in any assay. The source made the active and inactive calls. How the source made its calls: active means growth percent below 10; inactive means the rest.
Classes to choose from: active, inactive

COc1ccc(-c2cc(C(=O)Nc3nc4cc(C)c(C)cc4s3)nc3cc(-c4ccccc4)nn23)cc1OC    inactive
CC/C(=C(/c1ccc(O)cc1)c1ccc(OCCN2CCCCCC2)cc1)c1ccc(Cl)cc1    inactive
Brc1ccc(-c2nnc3c4[nH]ccc4ncn23)cc1    inactive
COc1ccc(-c2cc(-c3ccc(N(C)C)cc3)nc(NC(=O)c3ccncc3)n2)cc1    inactive
COc1ccc2nc3cc(Cl)ccc3c(NCCNCC(O)CO)c2c1 (stereo unspecified)    active
COc1cc(OC)cc(C2=C3CC[C@@H]4[C@H](CC[C@]5(C)C(=O)CC[C@@H]45)C3=CC3C(O)c4cccnc4N4C(=O)COC234)c1 (stereo partly specified)    inactive
C=C1C(=O)O[C@H]2[C@H]1CC/C(CNC(=O)/C=C/c1ccc(Br)cc1)=C\CC[C@@]1(C)O[C@@H]21    active
CC(C)=NNC(N)=S    inactive
Cc1csc(NC(=O)c2sc3nc(-c4cccs4)ccc3c2N)n1    inactive
CC(COC(=O)c1ccccc1)N1CC2CCC(C1)O2 (stereo unspecified)    inactive

# input Please let me know the test result on file for `O=c1c2ccccc2oc2ccc(OCCCCCN3CCCCCC3)cc12` .
# output inactive

----------
System: COLO 205 colon
Experiment: NCI-60 one-dose screen, 48 h
Conditions: 10 µM
This is part of a sample that, as a whole, favours compounds with a hit. Of some 83,000 tested, about 20% had one in any assay. Active and inactive are the calls of the source. Rule for the calls: active = growth percent below 10; inactive = the rest.
Classes to choose from: active, inactive

CCOc1ccc(/C=N/NC(=O)Cn2nc(Cc3ccc(OC)cc3)c3onc(C)c3c2=O)cc1    inactive
Cn1cc(-c2cc(N)n3nc(-c4cn(C)c5ccccc45)cc3n2)c2cc(F)ccc21    active
O=C(CN1CCN(c2ncnc3c2cnn3-c2ccccc2)CC1)Nc1ccc(Br)cc1    inactive
O=C(Nc1ccc(OCc2ccc(Cl)cc2)cc1)Nc1ccc(Cl)c(C(F)(F)F)c1    active
O=C(CN1CCN(c2ncnc3c2cnn3-c2ccccc2)CC1)Nc1ccc(Cl)cc1    inactive

# input Please let me know the test result on file for `O=C(CSc1nc2ccccc2c(=O)n1-c1ccc(Cl)cc1)Nc1ccc(-c2nc3ccccc3[nH]2)cc1` .
# output active

# input Please let me know the test result on file for `Fc1ccc(/C=C/c2nc3ccccc3n3c(-c4ccc(Cl)cc4)nnc23)cc1` .
# output inactive

# input Please let me know the test result on file for `Cn1cc(-c2cc3nc(-c4c[nH]c5ccccc45)cc(N)n3n2)c2cc(Cl)ccc21` .
# output active

----------
Tested on: UACC-257 melanoma
Experiment: NCI-60 one-dose screen, 48 h (100 = growth as untreated, 0 = no growth, -100 = all killed)
Settings: 10 µM
This is part of a sample that, as a whole, favours compounds with a hit. Of some 83,000 tested, about 20% had one in any assay.
Cut-off 90% on growth: below means Condition met, at or above means Condition not met.

Consider the worked cases shown below.
Cc1cc(N=C2NC(=O)S/C2=C\c2ccc(F)cc2)n[nH]1    Condition met
O=C(CSc1nc2ccccc2c(=O)n1-c1ccc(Cl)cc1)Nc1ccc(-c2nc3ccc([N+](=O)[O-])cc3[nH]2)cc1    Condition met
Cc1ccc(S(=O)(=O)N2CCN(S(=O)(=O)c3oc(-c4ccccc4)nc3C#N)CC2)cc1    Condition met
COc1ccc(-n2c(SCC(=O)NNS(=O)(=O)c3ccccc3)nc3ccc(Cl)cc3c2=O)cc1    Condition not met

# input For `Cn1cc(/C=C(/SS/C(=C/c2cn(C)c3cccc(C(=O)O)c23)C(=O)O)C(=O)O)c2c(C(=O)O)cccc21` , is the recorded growth below the cut-off of 90%?
# output Condition not met

# input For `COc1ccccc1-n1cc(C#N)c(N)c1C(=O)c1ccc(Cl)cc1Cl` , is the recorded growth below the cut-off of 90%?
# output Condition met

# input For `Cn1cc(-c2nnc(N)nc2-c2c[nH]c3ccccc23)c2cc(Br)cnc21` , is the recorded growth below the cut-off of 90%?
# output Condition met

# input For COc1ccc(C2c3sc4ccc(C)cc4c3Oc3nc(N)nc(N)c32)cc1 (configuration not stated) , is the recorded growth below the cut-off of 90%?
# output Condition not met

# input For `COc1cc2oc(-c3cccc(C(=O)Nc4ccc(Cl)cc4)c3)cc(=O)c2c(OCCN)c1OC` , is the recorded growth below the cut-off of 90%?
# output Condition met

# input For `Cn1cc(-c2cc(N)n3nc(-c4cn(C)c5ccccc45)cc3n2)c2cc(F)ccc21` , is the recorded growth below the cut-off of 90%?
# output Condition met
